The origin of these recorded values is patent US12590094B2.

Catalogue of log10 EC50 readings, one per entry.
# Tested on: PK1 neuroblastoma cells treated with TPrP
# Test Description: cells
# Type: cell-based
# Measurement Context: Neuroblastoma cell, read-out: Viability EC50
Reported Endpoint: log10 EC50 (log10 of the value in nM)

- c1ccc2c(c1)OCC(CNc1nnc(Cc3ccncc3)c3ccccc13)O2 (stereo not drawn) [SR1-134003]: 2.30
- COc1cc2cc3c4cc(OC)c(OC)cc4cc[n+]3c(C)c2cc1OC [SR5-2641, coralyne chloride]: 2.71
- CNS(=O)(=O)c1cc(-c2nnc3c4ccccc4c(C)nn23)ccc1C [SR1-115255]: 2.29
- COc1cc(Nc2nnc(Cc3ccncc3)c3ccccc23)cc(OC)c1 [SR1-151915]: 1.85
- Cc1nc2ncccn2c1-c1csc(Nc2ccc(S(N)(=O)=O)cc2)n1 [SR1-477264]: 2.19
- CCc1c(C(=O)OC)ncc2[nH]c3cc(OC)c(OC)cc3c12 [SR1-75869, DMCM, reference compound]: 2.08
- NS(=O)(=O)c1ccc(Nc2nc(-c3ccccn3)cs2)cc1 [SR1-477176]: 2.36
- NS(=O)(=O)c1ccc(Nc2nc(-c3ccc4ccccc4c3)cs2)cc1 [SR1-281377]: 2.28
- Cc1ccc(-c2nnc3c4ccccc4c(C)nn23)cc1S(=O)(=O)NCc1cccnc1 [SR5-22839]: 1.45
